Listed molecules paired with reported relative viability
- System: SK-MES-1
- TEST_SUMMARY: relative viability (nuclei count vs DMSO), 5 days (fraction); higher = more cells survive
- SETUP_CONDITIONS: first compound 0.005 µM
Form: value (number only, do not type unit).

Consider the reported relative viability for these molecules:
Data request: Can you share its relative viability? I mean this molecule: COc1cc2nccc(Oc3ccc(NC(=O)Nc4cc(C)on4)c(Cl)c3)c2cc1OC [Tivozanib] + Cc1nc(NC(=O)N2CCC[C@H]2C(N)=O)sc1-c1ccnc(C(C)(C)C(F)(F)F)c1 [Alpelisib] (partner 2 µM)
Data returned: 0.763

Data request: Entry to check: Nc1ccn([C@@H]2O[C@H](CO)[C@@H](O)[C@@H]2O)c(=O)n1 [Cytarabine] + Nc1nc2[nH]cc(CCc3ccc(C(=O)N[C@@H](CCC(=O)O)C(=O)O)cc3)c2c(=O)[nH]1 [Pemetrexed] (partner 0.2 µM)
Data returned: 0.684

Data request: Entry to check: COc1cc2nccc(Oc3ccc(NC(=O)Nc4cc(C)on4)c(Cl)c3)c2cc1OC [Tivozanib] + CC(=O)Nc1cccc(-n2c(=O)n(C3CC3)c(=O)c3c(Nc4ccc(I)cc4F)n(C)c(=O)c(C)c32)c1 [Trametinib] (partner 0.02 µM)
Data returned: 0.542

Now turn to the next molecule.
Data request: Can you share its relative viability? I mean this molecule: COc1cc2nccc(Oc3ccc(NC(=O)Nc4cc(C)on4)c(Cl)c3)c2cc1OC [Tivozanib] + CCNC(=O)c1noc(-c2cc(C(C)C)c(O)cc2O)c1-c1ccc(CN2CCOCC2)cc1 [Luminespib] (partner 0.01 µM)
Data returned: 0.737

====

Listed compounds paired with reported relative viability
- System: NCI-H358
- TEST_SUMMARY: relative viability (nuclei count vs DMSO), 5 days (fraction); higher = more cells survive
- SETUP_CONDITIONS: first compound 1.265 µM
Form: value (number only, do not type unit).

Consider the reported relative viability for these compounds:
Data request: Can you share its relative viability? I mean this compound: Cc1sc2c(c1C)C(c1ccc(Cl)cc1)=N[C@@H](CC(=O)OC(C)(C)C)c1nnc(C)n1-2 [JQ1] + N=C(N)NC(=N)NCCc1ccccc1 [Phenformin] (partner 250 µM)
Data returned: 0.198

Data request: Entry to check: Cc1sc2c(c1C)C(c1ccc(Cl)cc1)=N[C@@H](CC(=O)OC(C)(C)C)c1nnc(C)n1-2 [JQ1] + Cc1nc(Nc2ncc(C(=O)Nc3c(C)cccc3Cl)s2)cc(N2CCN(CCO)CC2)n1 [Dasatinib] (partner 0.075 µM)
Data returned: 0.183

Data request: Entry to check: Cc1sc2c(c1C)C(c1ccc(Cl)cc1)=N[C@@H](CC(=O)OC(C)(C)C)c1nnc(C)n1-2 [JQ1] + C[C@@H](Oc1cc(-c2cnn(C3CCNCC3)c2)cnc1N)c1c(Cl)ccc(F)c1Cl [Crizotinib] (partner 1 µM)
Data returned: 0.228

Now turn to the next compound.
Data request: Can you share its relative viability? I mean this compound: Cc1sc2c(c1C)C(c1ccc(Cl)cc1)=N[C@@H](CC(=O)OC(C)(C)C)c1nnc(C)n1-2 [JQ1] + CS(=O)(=O)CCNCc1ccc(-c2ccc3ncnc(Nc4ccc(OCc5cccc(F)c5)c(Cl)c4)c3c2)o1 [Lapatinib] (partner 2 µM)
Data returned: 0.561
